Test: self-splicing fitness, log relative to wild type (ln ratio); higher = more splicing; Tetrahymena group I intron in knt gene, E. coli kanamycin selection, DiMSum; sequences stand for … in CUCUCU…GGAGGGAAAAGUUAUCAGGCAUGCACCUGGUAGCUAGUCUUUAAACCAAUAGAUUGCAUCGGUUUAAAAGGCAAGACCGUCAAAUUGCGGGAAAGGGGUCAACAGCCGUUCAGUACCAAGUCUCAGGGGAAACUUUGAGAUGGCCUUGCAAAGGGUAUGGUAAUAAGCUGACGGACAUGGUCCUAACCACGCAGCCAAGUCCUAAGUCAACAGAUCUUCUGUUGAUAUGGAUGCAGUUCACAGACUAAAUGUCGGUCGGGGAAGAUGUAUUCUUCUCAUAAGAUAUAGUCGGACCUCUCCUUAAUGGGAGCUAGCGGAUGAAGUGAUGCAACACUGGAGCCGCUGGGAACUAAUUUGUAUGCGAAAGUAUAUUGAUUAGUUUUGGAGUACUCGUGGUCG;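 further: selection with 25 µg/mL kanamycin versus none on LB agar overnight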
Settings: 37 °C
// reported self-splicing fitness (ln) for each item listed
Please respond with just the number, no unit label.

Below are worked cases with known answers.
UGUUAGCAAUAUUACGCGUU: -1.01
CCUAAGCAAUAUUACGGCAU: -1.98
AUGUAGCAAUAUUACGCUCC: -0.973

q: I'd like to know its self-splicing fitness (ln). The sequence in question is "UUGCAGCAAUAUUACGUAUA"
a: -1.01

q: Also "GCCGAGCAAUAUUACGCCUG" ?
a: -2.03

q: Also "UCACAGCAAUAUUACGCGUU" ?
a: -2.13

q: Also "ACGUAGCAAUAUUACGCCAC" ?
a: -2.54

q: Also "AUUCAGCAAUAUUACGCGGC" ?
a: -2.43

q: Also "GCACAGCAAUAUUACGUACA" ?
a: -0.994

q: Also "UCAAAGCAAUAUUACGCAGA" ?
a: -2.64

q: Also "AGGAAGCAAUAUUACGUCUA" ?
a: -0.143

q: Also "ACCCAGCAAUAUUACGGUUU" ?
a: 0.0681

q: Also "AGCCAGCAAUAUUACGAUAA" ?
a: -2.89

Just for reference, the supplement of paper PMC7877785 is where these values come from.
